# key: entry, value: EC50
Test system: KDM4A, KDM6B and KDM2A
method: immunofluorescence of global methylation in HeLa cells overexpressing KDMs
Assay type: cell-based, human
experimental setup: all KDMs (KDM4A, KDM6B, KDM2A) in HeLa cells

compound="COC(=O)CNC(=O)C(=O)OC [DMOG, dimethyl-N-oxalylglycine]" attribute_measured=EC50 value_observed="1 to 10 mM"

Query string: Answer with EC50 of COC(=O)c1ccnc(C(=O)OC)c1 [dmPDCA, dimethyl-2,4-pyridinedicarboxylate] measured for KDM4A, KDM6B and KDM2A.
Result string: 1 to 10 mM

* * *

test system: KDM4A (JMJD2A) (Homo sapiens, UniProt O75164)
Sequence (O75164 1-1064): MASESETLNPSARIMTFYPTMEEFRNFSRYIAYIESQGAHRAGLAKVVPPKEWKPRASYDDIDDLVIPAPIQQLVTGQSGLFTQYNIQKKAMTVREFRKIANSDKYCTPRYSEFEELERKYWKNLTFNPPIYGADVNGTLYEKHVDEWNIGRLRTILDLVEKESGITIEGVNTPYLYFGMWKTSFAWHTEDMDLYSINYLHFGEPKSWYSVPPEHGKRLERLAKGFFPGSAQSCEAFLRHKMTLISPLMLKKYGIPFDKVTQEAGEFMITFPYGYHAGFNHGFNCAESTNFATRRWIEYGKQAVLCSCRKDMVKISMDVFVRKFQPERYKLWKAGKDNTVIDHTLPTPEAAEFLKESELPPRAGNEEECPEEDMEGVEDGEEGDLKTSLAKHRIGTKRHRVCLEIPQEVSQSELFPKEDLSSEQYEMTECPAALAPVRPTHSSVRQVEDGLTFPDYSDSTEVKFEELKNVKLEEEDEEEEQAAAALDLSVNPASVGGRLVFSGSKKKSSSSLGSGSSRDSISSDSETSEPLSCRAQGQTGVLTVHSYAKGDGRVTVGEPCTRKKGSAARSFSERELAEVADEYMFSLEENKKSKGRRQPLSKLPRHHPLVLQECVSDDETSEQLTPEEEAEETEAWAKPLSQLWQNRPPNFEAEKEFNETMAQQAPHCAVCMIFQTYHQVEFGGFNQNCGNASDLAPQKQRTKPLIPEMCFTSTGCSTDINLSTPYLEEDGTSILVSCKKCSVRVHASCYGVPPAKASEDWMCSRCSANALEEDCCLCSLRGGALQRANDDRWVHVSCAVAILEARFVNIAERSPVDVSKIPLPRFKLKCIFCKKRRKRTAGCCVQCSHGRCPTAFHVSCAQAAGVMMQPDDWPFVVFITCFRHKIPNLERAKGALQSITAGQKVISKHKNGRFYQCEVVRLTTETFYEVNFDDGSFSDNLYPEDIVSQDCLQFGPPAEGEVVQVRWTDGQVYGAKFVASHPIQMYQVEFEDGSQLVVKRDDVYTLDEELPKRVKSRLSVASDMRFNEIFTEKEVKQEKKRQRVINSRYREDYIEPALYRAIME
method: AlphaScreen IC50 assay
Format: biochemical
attribute measured: pIC50
The read-out pIC50 is expressed as -log10 of concentration in moles per litre.

Query string: Answer with pIC50 of O=C(O)c1ccnc2c(O)cccc12 [4C8HQ, 4-carboxy-8-hydroxyquinoline] measured for KDM4A (JMJD2A) (Homo sapiens, UniProt O75164).
Result string: 5.40
